Target: TEM-1 β-lactamase (Escherichia coli)
Sequence (P62593 24-286 limits assumed): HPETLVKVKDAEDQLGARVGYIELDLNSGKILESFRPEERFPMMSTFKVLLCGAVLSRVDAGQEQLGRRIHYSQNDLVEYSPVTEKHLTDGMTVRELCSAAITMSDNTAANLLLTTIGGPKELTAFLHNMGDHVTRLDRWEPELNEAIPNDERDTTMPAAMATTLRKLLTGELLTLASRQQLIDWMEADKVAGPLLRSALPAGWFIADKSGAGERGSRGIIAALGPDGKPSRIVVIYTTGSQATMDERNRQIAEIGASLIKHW
Assay: TEM-1 β-lactamase inhibition assay (nitrocefin hydrolysis, 486 nm)
Assay type: biochemical
Conditions: Ki from Lineweaver-Burke Analysis, values in parenthesis; Lineweaver-Burke analysis
Experimental endpoint: Ki (nM)
Please reply with the bare figure in nM and do not write the unit itself.

Test item O=C(OCc1c(Cl)cccc1Cl)c1cc(B(O)O)cc([N+](=O)[O-])c1 [Compound (3a)] ; TEM-1 β-lactamase (Escherichia coli); reported Ki was 4970

Test item O=C(OCc1cccc([N+](=O)[O-])c1)c1cc(B(O)O)cc([N+](=O)[O-])c1 [Compound (3b)] ; TEM-1 β-lactamase (Escherichia coli); reported Ki was 2760

Test item O=C(Oc1c(Cl)cccc1[N+](=O)[O-])c1cc(B(O)O)cc([N+](=O)[O-])c1 [Compound (1h)] ; TEM-1 β-lactamase (Escherichia coli); reported Ki was 650

Test item N#Cc1ccccc1OC(=O)c1cc(B(O)O)cc([N+](=O)[O-])c1 [Compound (1g)] ; TEM-1 β-lactamase (Escherichia coli); reported Ki was 1370

Test item O=C(Oc1ccccc1[N+](=O)[O-])c1cc(B(O)O)cc([N+](=O)[O-])c1 [Compound (1b)] ; TEM-1 β-lactamase (Escherichia coli); reported Ki was 1180

Test item O=C(Oc1ccccc1)c1cc(B(O)O)cc([N+](=O)[O-])c1 [Compound (1t)] ; TEM-1 β-lactamase (Escherichia coli); reported Ki was 6540

Test item O=C(Oc1ccccc1Cl)c1cc(B(O)O)cc([N+](=O)[O-])c1 [Compound (1j)] ; TEM-1 β-lactamase (Escherichia coli); reported Ki was 1310

Test item O=C(Oc1ccccc1Br)c1cc(B(O)O)cc([N+](=O)[O-])c1 [(1u)] ; TEM-1 β-lactamase (Escherichia coli); reported Ki was 1680

Test item O=C(Oc1c(Cl)cccc1Cl)c1cc(B(O)O)cc([N+](=O)[O-])c1 [Compound (1n)] ; TEM-1 β-lactamase (Escherichia coli); reported Ki was 620

Test item O=C(OCc1cccc(Cl)c1)c1cc(B(O)O)cc([N+](=O)[O-])c1 [Compound (3c)] ; TEM-1 β-lactamase (Escherichia coli); reported Ki was 2350
